Data origin: ChEMBL document CHEMBL5576052

System: Oryctolagus cuniculus
Procedure Summary: Neuromuscular blocking in rabbit model of propofol-induced anesthesia assessed as time duration of 25 to 90 percent recovery indices at 272.7 nmol/kg by train-of-four response method
Assay type: functional
Quantity Name: Time (min)
// note: answer is a bare numeric in min

For orientation, consider the following solved cases.
Noted for COc1cc2c(cc1OC)[C@@H](Cc1cc(OC)c(OC)c(OC)c1)[N+](C)(CCC(=O)OC/C=C\COC(=O)CC[N+]1(C)CCc3cc(OC)c(OC)cc3[C@H]1Cc1cc(OC)c(OC)c(OC)c1)CC2.O=S(=O)([O-])c1ccccc1.O=S(=O)([O-])c1ccccc1 (stereo not given in full) : its Time reads 10.25

Noted for COc1cc2c(cc1OC)[C@@H](Cc1cc(OC)c(OC)c(OC)c1)[N+](C)(CCCOC(=O)CCCC(=O)OCCC[N+]1(C)CCc3cc(OC)c(OC)cc3[C@H]1Cc1cc(OC)c(OC)c(OC)c1)CC2.[Cl-].[Cl-] (stereo not given in full) : its Time reads 12

Noted for `COc1cc2c(cc1OC)[C@@H](Cc1cc(OC)c(OC)c(OC)c1)[N@+](CCCOC(=O)CC/C=C/CCC(=O)OCCC[N@@+]1(CC3CCC3)CCc3cc(OC)c(OC)cc3[C@H]1Cc1cc(OC)c(OC)c(OC)c1)(CC1CCC1)CC2.[Cl-].[Cl-]` : its Time reads 15.17

More entries:
Noted for COc1cc2c(cc1OC)[C@@H](Cc1cc(OC)c(OC)c(OC)c1)[N+](CCCOC(=O)CC/C=C/CCC(=O)OCCC[N+]1(CC3CC3)CCc3cc(OC)c(OC)cc3[C@H]1Cc1cc(OC)c(OC)c(OC)c1)(CC1CC1)CC2.[Cl-].[Cl-] (stereo not given in full) : its Time reads 9.58

Noted for COc1cc2c(cc1OC)[C@@H](Cc1cc(OC)c(OC)c(OC)c1)[N+](C)(CCC(=O)OCCCCOC(=O)CC[N+]1(C)CCc3cc(OC)c(OC)cc3[C@H]1Cc1cc(OC)c(OC)c(OC)c1)CC2.O=S(=O)([O-])c1ccccc1.O=S(=O)([O-])c1ccccc1 (stereo not given in full) : its Time reads 13.67

Noted for `C=CC[N@+]1(CCCOC(=O)CC/C=C/CCC(=O)OCCC[N@@+]2(CC=C)CCc3cc(OC)c(OC)cc3[C@H]2Cc2cc(OC)c(OC)c(OC)c2)CCc2cc(OC)c(OC)cc2[C@H]1Cc1cc(OC)c(OC)c(OC)c1.[Cl-].[Cl-]` : its Time reads 21.83

Noted for COc1cc2c(cc1OC)[C@@H](Cc1cc(OC)c(OC)c(OC)c1)[N+](C)(CCCOC(=O)Cc1ccc(CC(=O)OCCC[N+]3(C)CCc4cc(OC)c(OC)cc4[C@H]3Cc3cc(OC)c(OC)c(OC)c3)cc1)CC2.[Cl-].[Cl-] (stereo not given in full) : its Time reads 10.83

Noted for CC[N+]1(CCCOC(=O)CC/C=C/CCC(=O)OCCC[N+]2(CC)CCc3cc(OC)c(OC)cc3[C@H]2Cc2cc(OC)c(OC)c(OC)c2)CCc2cc(OC)c(OC)cc2[C@H]1Cc1cc(OC)c(OC)c(OC)c1.[Cl-].[Cl-] (stereo not given in full) : its Time reads 9.67

Noted for COc1cc2c(cc1OC)[C@@H](Cc1cc(OC)c(OC)c(OC)c1)[N+](C)(CCC(=O)OC/C(Br)=C(\Br)COC(=O)CC[N+]1(C)CCc3cc(OC)c(OC)cc3[C@H]1Cc1cc(OC)c(OC)c(OC)c1)CC2.O=S(=O)([O-])c1ccccc1.O=S(=O)([O-])c1ccccc1 (stereo not given in full) : its Time reads 10.92

Noted for COc1cc2c(cc1OC)[C@@H](Cc1cc(OC)c(OC)c(OC)c1)[N@@+](C)(CCCOC(=O)CC/C=C/CCC(=O)OCCC[N@+]1(C)CCc3cc(OC)c(OC)cc3[C@H]1Cc1cc(OC)c(OC)c(OC)c1)CC2.[Cl-].[Cl-] (mixture of isomers) : its Time reads 13.42

Noted for COc1cc2c(cc1OC)[C@@H](Cc1cc(OC)c(OC)c(OC)c1)[N+](C)(CCCOC(=O)CC/C=C/CCC(=O)OCCC[N+]1(C)CCc3cc(OC)c(OC)cc3[C@H]1Cc1cc(OC)c(OC)c(OC)c1)CC2.[Cl-].[Cl-] (stereo not given in full) [MIVACURIUM CHLORIDE] : its Time reads 9.71

Noted for COc1cc2c(cc1OC)[C@@H](Cc1cc(OC)c(OC)c(OC)c1)[N+](C)(CCC(=O)OCCCOC(=O)CC[N+]1(C)CCc3cc(OC)c(OC)cc3[C@H]1Cc1cc(OC)c(OC)c(OC)c1)CC2.O=S(=O)([O-])c1ccccc1.O=S(=O)([O-])c1ccccc1 (stereo not given in full) : its Time reads 9.83

Noted for COc1cc2c(cc1OC)[C@@H](Cc1cc(OC)c(OC)c(OC)c1)[N+](C)(CCC(=O)OCC#CC#CCOC(=O)CC[N+]1(C)CCc3cc(OC)c(OC)cc3[C@H]1Cc1cc(OC)c(OC)c(OC)c1)CC2.O=S(=O)([O-])c1ccccc1.O=S(=O)([O-])c1ccccc1 (stereo not given in full) : its Time reads 12

Noted for `CC[N@+]1(CCCOC(=O)CC/C=C/CCC(=O)OCCC[N@@+]2(CC)CCc3cc(OC)c(OC)cc3[C@H]2Cc2cc(OC)c(OC)c(OC)c2)CCc2cc(OC)c(OC)cc2[C@H]1Cc1cc(OC)c(OC)c(OC)c1.[Cl-].[Cl-]` : its Time reads 15.25

Noted for `COc1cc2c(cc1OC)[C@@H](Cc1cc(OC)c(OC)c(OC)c1)[N@+](C)(CCCOC(=O)CC/C=C/CCC(=O)OCCC[N@+]1(C)CCc3cc(OC)c(OC)cc3[C@H]1Cc1cc(OC)c(OC)c(OC)c1)CC2.[Cl-].[Cl-]` : its Time reads 13.92
